Reference for the values: patent US5079237A

- assay_protocol: Acute toxicity (LD50) in mice after p.o. administration (Example 6)
- Assay type: in vivo
- setup_conditions: mouse, in vivo, po, mice, M; p.o.; Litchfield-Wilcoxon; read-out: LD50 after 15 days
Where a name gives a salt, the structure may show the parent alone.
test_readout: LD50 at 360 h

{"columns": ["molecule", "experimental_result"],
 "data": [
  ["COC(=O)C1=C(C)NC(C)=C(C(=O)OCCN(C)Cc2ccccc2)C1c1cccc([N+](=O)[O-])c1 (stereo not shown) [nicardipine hydrochloride]", "3760 mg/kg"]
]}

* * *

- assay_protocol: Acute toxicity (LD50) in mice after p.o. administration (Example 6)
- Type: in vivo
- setup_conditions: mouse, in vivo, po, 3000 mg/kg, mice F; 3000 mg/kg p.o.; read-out: % of perished animals after 15 days
Counter-ions that a name gives are not always drawn.

{"columns": ["compound", "mortality at 360 h"],
 "data": [
  ["COC(=O)C1=C(C)NC(C)=C(C(=O)OCCN(C)Cc2ccccc2)C1c1cccc([N+](=O)[O-])c1 (stereo not shown) [nicardipine hydrochloride]", "40%"]
]}

* * *

- assay_protocol: Acute toxicity (LD50) in mice after p.o. administration (Example 6)
- Format: in vivo
- setup_conditions: mouse, in vivo, po, 3000 mg/kg, mice M; 3000 mg/kg p.o.; read-out: % of perished animals after 24 hrs
Counter-ions that a name gives are not always drawn.
test_readout: mortality at 24 h (%)

{"columns": ["molecule", "experimental_result"],
 "data": [
  ["COC(=O)C1=C(C)NC(C)=C(C(=O)OCCN(C)Cc2ccccc2)C1c1cccc([N+](=O)[O-])c1 (stereo not shown) [nicardipine hydrochloride]", 30]
]}

* * *

- assay_protocol: Acute toxicity (LD50) in rats after p.o. administration (Example 6)
- Type: in vivo
- setup_conditions: rat, in vivo, po, 3000 mg/kg, rats F; 3000 mg/kg p.o.; read-out: % of perished animals after 24 hrs
Where a name gives a salt, the structure may show the parent alone.
test_readout: mortality at 24 h (%)

{"columns": ["compound", "experimental_result"],
 "data": [
  ["COC(=O)C1=C(C)NC(C)=C(C(=O)OCCN(C)Cc2ccccc2)C1c1cccc([N+](=O)[O-])c1 (stereo not shown) [nicardipine hydrochloride]", 0]
]}

* * *

- assay_protocol: Acute toxicity (LD50) in rats after p.o. administration (Example 6)
- Format: in vivo
- setup_conditions: rat, in vivo, po, 2500 mg/kg, rats M; 2500 mg/kg p.o.; read-out: % of perished animals after 24 hrs
Where a name gives a salt, the structure may show the parent alone.

{"columns": ["compound", "unit_abbrev", "mortality at 24 h"],
 "data": [
  ["COC(=O)C1=C(C)NC(C)=C(C(=O)OCCN(C)Cc2ccccc2)C1c1cccc([N+](=O)[O-])c1 (stereo not shown) [nicardipine hydrochloride]", "%", 40]
]}

* * *

- assay_protocol: Acute toxicity (LD50) in mice after p.o. administration (Example 6)
- Format: in vivo
- setup_conditions: mouse, in vivo, po, 4000 mg/kg, mice F; 4000 mg/kg p.o.; read-out: % of perished animals after 15 days
- Description: In toxicological tests acute toxicities (LD50) of nicardipine hydrochloride and of its inclusion complex with beta-cyclodextrin were determined in mice and rats. The complex contained 26.8% of nicardipine hydrochloride. […] The volume of the administered suspension was in mice 0.6 ml/20 g of body weight and in rats 1.2 to 4.4 ml/200 g of body weight. […] After the administration the animals were put under observation and the symptoms of poisoning or behaviour changes were recorded for another 15 days. […]
Counter-ions that a name gives are not always drawn.
test_readout: mortality at 360 h (%)

{"columns": ["compound", "experimental_result"],
 "data": [
  ["COC(=O)C1=C(C)NC(C)=C(C(=O)OCCN(C)Cc2ccccc2)C1c1cccc([N+](=O)[O-])c1 (stereo not shown) [nicardipine hydrochloride]", 50]
]}

* * *

- assay_protocol: Acute toxicity (LD50) in rats after p.o. administration (Example 6)
- Format: in vivo
- setup_conditions: rat, in vivo, po, 6000 mg/kg, rats F; 6000 mg/kg p.o.; read-out: % of perished animals after 15 days
Structures can show the parent of a compound that is named as a salt.

{"columns": ["compound", "mortality at 360 h / %"],
 "data": [
  ["COC(=O)C1=C(C)NC(C)=C(C(=O)OCCN(C)Cc2ccccc2)C1c1cccc([N+](=O)[O-])c1 (stereo not shown) [nicardipine hydrochloride]", 80]
]}

* * *

- assay_protocol: Acute toxicity (LD50) in rats after p.o. administration (Example 6)
- Format: in vivo
- setup_conditions: rat, in vivo, po, 3500 mg/kg, rats M; 3500 mg/kg p.o.; read-out: % of perished animals after 24 hrs
Where a name gives a salt, the structure may show the parent alone.
test_readout: mortality at 24 h (%)

{"columns": ["compound", "test_readout", "experimental_result"],
 "data": [
  ["COC(=O)C1=C(C)NC(C)=C(C(=O)OCCN(C)Cc2ccccc2)C1c1cccc([N+](=O)[O-])c1 (stereo not shown) [nicardipine hydrochloride]", "mortality at 24 h", 60]
]}

* * *

- assay_protocol: Acute toxicity (LD50) in rats after p.o. administration (Example 6)
- Type: in vivo
- setup_conditions: rat, in vivo, po, 5000 mg/kg, rats M; 5000 mg/kg p.o.; read-out: % of perished animals after 15 days
Counter-ions that a name gives are not always drawn.

{"columns": ["molecule", "mortality at 360 h [%]"],
 "data": [
  ["COC(=O)C1=C(C)NC(C)=C(C(=O)OCCN(C)Cc2ccccc2)C1c1cccc([N+](=O)[O-])c1 (stereo not shown) [nicardipine hydrochloride]", 80]
]}

* * *

- assay_protocol: Acute toxicity (LD50) in mice after p.o. administration (Example 6)
- Assay type: in vivo
- setup_conditions: mouse, in vivo, po, 1500 mg/kg, mice M; 1500 mg/kg p.o.; read-out: % of perished animals after 15 days
Where a name gives a salt, the structure may show the parent alone.
test_readout: mortality at 360 h (%)

{"columns": ["molecule", "test_readout", "experimental_result"],
 "data": [
  ["COC(=O)C1=C(C)NC(C)=C(C(=O)OCCN(C)Cc2ccccc2)C1c1cccc([N+](=O)[O-])c1 (stereo not shown) [nicardipine hydrochloride]", "mortality at 360 h", 0]
]}

* * *

- assay_protocol: Acute toxicity (LD50) in mice after p.o. administration (Example 6)
- Format: in vivo
- setup_conditions: mouse, in vivo, po, 6000 mg/kg, mice M; 6000 mg/kg p.o.; read-out: % of perished animals after 24 hrs
Counter-ions that a name gives are not always drawn.
test_readout: mortality at 24 h (%)

{"columns": ["molecule", "experimental_result"],
 "data": [
  ["COC(=O)C1=C(C)NC(C)=C(C(=O)OCCN(C)Cc2ccccc2)C1c1cccc([N+](=O)[O-])c1 (stereo not shown) [nicardipine hydrochloride]", 90]
]}

* * *

- assay_protocol: Acute toxicity (LD50) in rats after p.o. administration (Example 6)
- Type: in vivo
- setup_conditions: rat, in vivo, po, 2500 mg/kg, rats M; 2500 mg/kg p.o.; read-out: % of perished animals after 15 days
Counter-ions that a name gives are not always drawn.
test_readout: mortality at 360 h (%)

{"columns": ["molecule", "experimental_result"],
 "data": [
  ["COC(=O)C1=C(C)NC(C)=C(C(=O)OCCN(C)Cc2ccccc2)C1c1cccc([N+](=O)[O-])c1 (stereo not shown) [nicardipine hydrochloride]", 40]
]}

* * *

- assay_protocol: Acute toxicity (LD50) in mice after p.o. administration (Example 6)
- Assay type: in vivo
- setup_conditions: mouse, in vivo, po, 1500 mg/kg, mice F; 1500 mg/kg p.o.; read-out: % of perished animals after 24 hrs
Where a name gives a salt, the structure may show the parent alone.
test_readout: mortality at 24 h (%)

{"columns": ["molecule", "unit_abbrev", "experimental_result"],
 "data": [
  ["COC(=O)C1=C(C)NC(C)=C(C(=O)OCCN(C)Cc2ccccc2)C1c1cccc([N+](=O)[O-])c1 (stereo not shown) [nicardipine hydrochloride]", "%", 20]
]}

* * *

- assay_protocol: Acute toxicity (LD50) in mice after p.o. administration (Example 6)
- Assay type: in vivo
- setup_conditions: mouse, in vivo, po, 3000 mg/kg, mice M; 3000 mg/kg p.o.; read-out: % of perished animals after 15 days
Structures can show the parent of a compound that is named as a salt.
test_readout: mortality at 360 h (%)

{"columns": ["compound", "experimental_result"],
 "data": [
  ["COC(=O)C1=C(C)NC(C)=C(C(=O)OCCN(C)Cc2ccccc2)C1c1cccc([N+](=O)[O-])c1 (stereo not shown) [nicardipine hydrochloride]", 40]
]}

* * *

- assay_protocol: Acute toxicity (LD50) in rats after p.o. administration (Example 6)
- Format: in vivo
- setup_conditions: rat, in vivo, po, 4000 mg/kg, rats F; 4000 mg/kg p.o.; read-out: % of perished animals after 15 days
Structures can show the parent of a compound that is named as a salt.
test_readout: mortality at 360 h (%)

{"columns": ["compound", "experimental_result"],
 "data": [
  ["COC(=O)C1=C(C)NC(C)=C(C(=O)OCCN(C)Cc2ccccc2)C1c1cccc([N+](=O)[O-])c1 (stereo not shown) [nicardipine hydrochloride]", 20]
]}
